molecular target: CCR9 (Homo sapiens, UniProt P51686); test: FLIPR calcium flux assay using hCCR9 over expressed cells (TECK stimulation); type: cell-based; design: expressed in transfected cells; host or cells: Chem-1 cells overexpressing hCCR9; conditions: Chem1-hCCR9 overexpressing cells; Ki determined from IC50 of TECK-induced intracellular calcium increase
Sequence (P51686 whole entry): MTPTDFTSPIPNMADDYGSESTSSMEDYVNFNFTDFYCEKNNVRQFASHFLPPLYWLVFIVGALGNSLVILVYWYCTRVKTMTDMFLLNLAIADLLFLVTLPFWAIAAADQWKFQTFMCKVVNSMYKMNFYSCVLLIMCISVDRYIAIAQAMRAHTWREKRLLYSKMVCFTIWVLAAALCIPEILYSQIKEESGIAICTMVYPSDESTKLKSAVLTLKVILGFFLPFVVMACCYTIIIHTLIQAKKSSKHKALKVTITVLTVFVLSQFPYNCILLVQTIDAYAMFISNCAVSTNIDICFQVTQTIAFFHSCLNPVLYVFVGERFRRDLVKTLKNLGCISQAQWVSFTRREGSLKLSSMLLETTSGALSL
// NB: equality with 100 nM counts as no (0); only Ki strictly below is yes (1)

Answered cases to consult:
> print(dat)
                                smiles.repr  label.value
1  Cc1cc(-c2cc3c(C#N)ccc(NS(=O)(=O)c4ccc(C(C)(C)C)cc4)n3n2)n(C)n1       no (0)
2  CC(C)(C)c1ccc(S(=O)(=O)Nc2ccc(C#N)c3cc(-c4cn[nH]c4)nn23)cc1       no (0)
3  CC(C)(C)c1ccc(S(=O)(=O)Nc2ccc(Cl)c3cc(-c4ccsc4C(=O)O)nn23)cc1       no (0)
4  CC(C)(C)c1ccc(S(=O)(=O)Nc2ccc(Cl)c3cc(-c4cccnc4)nn23)cc1       no (0)
5  CC(C)(C)c1ccc(S(=O)(=O)Nc2ccc(Cl)c3cc(C4CC4)nn23)cc1      yes (1)

Now, please, on to the next compound.
Say whether its Ki is strictly beneath 100 nM. Entry: `Cn1ccc(-c2cc3c(C#N)ccc(NS(=O)(=O)c4ccc(C(C)(C)C)cc4)n3n2)c1`
no (0)
